B1: EHMT1 (parent)
chain: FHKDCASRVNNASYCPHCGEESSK

- Variants of: B1
- MEASUREMENT PROTOCOL: protein stability index of a GFP-peptide fusion (GPS, HEK-293T) (PSI 1-6); higher = more stable;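 also: lentivirally expressed fusions sorted by FACS into six bins by GFP to DsRed ratio, PSI derived from sequencing read proportions per bin multiplied by bin number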
- CONDITION INFO: c terminus: a fixed tail appended
ENDPOINT: protein stability index
// print number alone

protein stability index in this record for Y14P : 3.9

Value of protein stability index reported for the variant S22G is 2.81

Input N10C . Output protein stability index: 3.75

Noted for A6E : its protein stability index reads 3.6

Given item K3N , the value recorded as its protein stability index is 2.69

Reported protein stability index of N10H : 3.94

Record S13Y . Reported protein stability index: 2.34

Lab note: measured protein stability index of S23F was 3.63

Record K24S , field protein stability index: 3.48

Documented protein stability index of S7C : 4.27

response.value for A6G (field: protein stability index) = 3.59

// recorded protein stability index for G19W : 2.96

Field protein stability index (entry C5F ) reads 2.72

// recorded protein stability index for H17R : 3.5

Field protein stability index (entry C15A ) reads 3.32

For reference, reported protein stability index for N10I stands at 3.08

Lab book: protein stability index of S22L noted as 3.22

# protein stability index of S23A = 3.63

protein stability index for E20G is 3.6

# protein stability index of S23L = 3.15

So, P16F ? Its protein stability index was 2.73

Given item G19R , the value recorded as its protein stability index is 2.84

Data point: H17D ; protein stability index = 3.84

Recorded protein stability index (variant H17N ): 3.85

Per the record, C18E has protein stability index of 4.36

Noted for N10D : its protein stability index reads 3.9

Value of measured protein stability index for the entry E20Q : 3.14

protein stability index recorded for this variant, A12H , is 3.22

Field protein stability index (entry C15F ) reads 3.04

Looking up A12M , I see its protein stability index listed as 3.24

Memo: G19Y , reported protein stability index: 3.91

Memo: K3M , reported protein stability index: 2.29

Reported protein stability index of C15I : 3.32

Measured protein stability index of K3W : 1.78

Entry S7R — recorded protein stability index = 3.97

Consider S13E . Its measured protein stability index is 3.77

Given item D4R , the value recorded as its protein stability index is 2.3

Record H17P , field protein stability index: 2.87

Per the records, this variant ( S7G ) has protein stability index equal to 3.47

# variant H17Q ; its protein stability index = 3.21

Just so you know, measured protein stability index for K3I came out at 2.7

Sure, the documented protein stability index for C18S is 3.68

// sample C5T , its protein stability index was 2.25

Record summary for G19E : reported protein stability index = 4.05

Per the records, this variant ( C18T ) has protein stability index equal to 3.58

response.value for K24C (field: protein stability index) = 3.7

The measured protein stability index associated with G19N reads 3.5

Looking up V9Q , I see its protein stability index listed as 3.74

For reference, reported protein stability index for S22M stands at 3.31

Recorded protein stability index (variant A12T ): 3.31

What the record says about Y14W : protein stability index is 2.45

get_value(item= N10L , readout=protein stability index) returns 3.31

Record summary for V9W : reported protein stability index = 2.31

// V9E : protein stability index value = 3.87

The variant listed as N11Y shows protein stability index equal to 2.68

Input R8T . Output protein stability index: 3.1

// field: protein stability index; key: G19S ; value = 3.48

The recorded protein stability index for entry D4Q equals 2.73

Form: variant = V9R ; protein stability index = 3.63

For this variant ( E20A ), measured protein stability index is 3.21

Reported protein stability index of H17L : 3.05

protein stability index recorded for this variant, A12R , is 3.33

# variant C15Q ; its protein stability index = 3.67

Given item C5Q , the value recorded as its protein stability index is 2.25
